test system: 379773-124-R-J2-PDC complex spheroids, viability % test/control; experiment: Anticancer human tumor 379773-124-R-J2-PDC patient-derived endometrial carcinoma cell line growth inhibition [CLK]; conditions: second compound 1 µM; first compound 10 µM; stronger effect = lower value
Rule: measured viability, T/C below 10% gets YES; anything equal to or greater than 10% gets NO.

Q: viability, T/C under 10%? Item: C#Cc1c(F)ccc2cc(O)cc(-c3ncc4c(N5CC6CCC(C5)N6)nc(OCC56CCCN5CC(F)C6)nc4c3F)c12 (stereo not given) + CNC(=O)c1ccc(Nc2nc(OC3CCCC3)c3c(-c4ccc5nc(C)oc5c4)c[nH]c3n2)c(OC)c1
Result: NO

Q: viability, T/C under 10%? Item: Nc1ccccc1NC(=O)c1ccc(CNC(=O)OCc2cccnc2)cc1 + CN1CCN(c2cc(C(=O)Nc3cc4cc(-c5cnn(C)c5)ccc4cn3)ccn2)CC1
Result: YES

Q: viability, T/C under 10%? Item: CC1(C)CCC(CN2CCN(c3ccc(C(=O)NS(=O)(=O)c4ccc(NCC5CCOCC5)c([N+](=O)[O-])c4)c(Oc4cnc5[nH]ccc5c4)c3)CC2)=C(c2ccc(Cl)cc2)C1 + CN1CCN(c2cc(C(=O)Nc3cc4cc(-c5cnn(C)c5)ccc4cn3)ccn2)CC1
Result: YES

Q: viability, T/C under 10%? Item: O=c1[nH]cc(F)c(=O)[nH]1 + CNC(=O)c1ccc(Nc2nc(OC3CCCC3)c3c(-c4ccc5nc(C)oc5c4)c[nH]c3n2)c(OC)c1
Result: NO

* * *

Task for the reader: assign each of the following compounds its reported viability, T/C.
System: 379773-124-R-J2-PDC complex spheroids, viability % test/control
Assay: Anticancer human tumor 379773-124-R-J2-PDC cell line growth inhibition [CLK];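 further: compound exposure lasted seven days before the viability readout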;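 on viability, T/C: 100% = DMSO vehicle control wells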
Conditions: second compound 0.316 µM; first compound 0.316 µM; stronger effect = lower value
Source text: A high-throughput screen of multi-cell type tumor spheroids was designed to identify active combinations of […] and targeted small molecules. Complex spheroids include a stromal component modeled by human endothelial cells (HUVEC) and fibroblasts modeled by human mesenchymal stem cells (MSCs). […] Compounds. […] If the clinical Cmax for an agent had not been determined, the highest concentration tested was 10 microM. […]
Please reply with the bare figure in % and do not write the unit itself.

Q: Can you look up the measured viability, T/C of CC(Nc1ccc2c(c1)OCCn1cc(N3C(=O)OCC3C(F)F)nc1-2)C(N)=O (stereo not drawn) + CN1CCN(c2cc(C(=O)Nc3cc4cc(-c5cnn(C)c5)ccc4cn3)ccn2)CC1 for me?
Result: 21.1

Q: Can you look up the measured viability, T/C of CCCS(=O)(=O)Nc1ccc(F)c(C(=O)c2c[nH]c3ncc(-c4ccc(Cl)cc4)cc23)c1F + CN1CCN(c2cc(C(=O)Nc3cc4cc(-c5cnn(C)c5)ccc4cn3)ccn2)CC1 for me?
Result: 30.2

Q: Can you look up the measured viability, T/C of CC1(C)CCC(CN2CCN(c3ccc(C(=O)NS(=O)(=O)c4ccc(NCC5CCOCC5)c([N+](=O)[O-])c4)c(Oc4cnc5[nH]ccc5c4)c3)CC2)=C(c2ccc(Cl)cc2)C1 + CN1CCN(c2cc(C(=O)Nc3cc4cc(-c5cnn(C)c5)ccc4cn3)ccn2)CC1 for me?
Result: 26.7

* * *

Task for the reader: assign each of the following compounds its reported IC50.
Test system: 379773-124-R-J2-PDC complex spheroids, viability % test/control
Assay: Anticancer human tumor 379773-124-R-J2-PDC cell line growth inhibition [CLK];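 further: compound exposure lasted seven days before the viability readout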
Details: curve of first compound; second compound 0.1 µM
Description: A high-throughput screen of multi-cell type tumor spheroids was designed to identify active combinations of […] and targeted small molecules. Complex spheroids include a stromal component modeled by human endothelial cells (HUVEC) and fibroblasts modeled by human mesenchymal stem cells (MSCs). […] Compounds. […] If the clinical Cmax for an agent had not been determined, the highest concentration tested was 10 microM. […]
Please reply with the bare figure in nM and do not write the unit itself.

Q: Can you look up the measured IC50 of C=C(F)C(=O)N1CCN(c2nc(OCC3CCCN3C)nc3c2CCN(c2cccc4cccc(Cl)c24)C3)CC1CC#N (stereo not drawn) + CN1CCN(c2cc(C(=O)Nc3cc4cc(-c5cnn(C)c5)ccc4cn3)ccn2)CC1 for me?
Result: 2700

Q: Can you look up the measured IC50 of CC1COCCN1c1cc(C2(S(C)(=N)=O)CC2)nc(-c2ccnc3[nH]ccc23)n1 (stereo not drawn) + CN1CCN(c2cc(C(=O)Nc3cc4cc(-c5cnn(C)c5)ccc4cn3)ccn2)CC1 for me?
Result: 2820

* * *

system: 379773-124-R-J2-PDC complex spheroids, viability % test/control; test: Anticancer human tumor 379773-124-R-J2-PDC cell line growth inhibition [CLK]; details: second compound 0.0316 µM; first compound 1 µM; active means viability on the fitted dose curve at most 10% of control; inactive means the rest;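 further: compound exposure lasted seven days before the viability readout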
Use one of these outcomes when replying: active, inactive

Q: Dear colleague, could you share the recorded outcome for COc1ccc([C@@H](O)c2cc(-c3ncnc4cc(N5CCOCC5)ccc34)c(F)cc2Cl)nn1 + CN1CCN(c2cc(C(=O)Nc3cc4cc(-c5cnn(C)c5)ccc4cn3)ccn2)CC1 when you have a moment?
Result: inactive

Q: Dear colleague, could you share the recorded outcome for C=CC(=O)N1CCN(c2nc(=O)n(-c3c(C)ccnc3C(C)C)c3nc(-c4c(O)cccc4F)c(F)cc23)C(C)C1 (stereo not given) + CN1CCN(c2cc(C(=O)Nc3cc4cc(-c5cnn(C)c5)ccc4cn3)ccn2)CC1 when you have a moment?
Result: inactive

Q: Dear colleague, could you share the recorded outcome for COC1C=CCC(C)C(C)S(=O)(=O)NC(=O)c2ccc3c(c2)N(CC2CCC21)CC1(CCCc2cc(Cl)ccc21)CO3 (stereo not given) + CNC(=O)c1ccc(Nc2nc(OC3CCCC3)c3c(-c4ccc5nc(C)oc5c4)c[nH]c3n2)c(OC)c1 when you have a moment?
Result: inactive

Q: Dear colleague, could you share the recorded outcome for CCc1c2c(nc3ccc(O)cc13)-c1cc3c(c(=O)n1C2)COC(=O)[C@]3(O)CC + CNC(=O)c1ccc(Nc2nc(OC3CCCC3)c3c(-c4ccc5nc(C)oc5c4)c[nH]c3n2)c(OC)c1 when you have a moment?
Result: active

Q: Dear colleague, could you share the recorded outcome for Nc1ccccc1NC(=O)c1ccc(CNC(=O)OCc2cccnc2)cc1 + CN1CCN(c2cc(C(=O)Nc3cc4cc(-c5cnn(C)c5)ccc4cn3)ccn2)CC1 when you have a moment?
Result: inactive

Q: Dear colleague, could you share the recorded outcome for C=CC(=O)N1CCN(c2nc(=O)n(-c3c(C)ccnc3C(C)C)c3nc(-c4c(O)cccc4F)c(F)cc23)C(C)C1 (stereo not given) + CNC(=O)c1ccc(Nc2nc(OC3CCCC3)c3c(-c4ccc5nc(C)oc5c4)c[nH]c3n2)c(OC)c1 when you have a moment?
Result: inactive

Q: Dear colleague, could you share the recorded outcome for CCCS(=O)(=O)Nc1ccc(F)c(C(=O)c2c[nH]c3ncc(-c4ccc(Cl)cc4)cc23)c1F + CN1CCN(c2cc(C(=O)Nc3cc4cc(-c5cnn(C)c5)ccc4cn3)ccn2)CC1 when you have a moment?
Result: inactive

Q: Dear colleague, could you share the recorded outcome for CCN1CCN(Cc2ccc(Nc3ncc(F)c(-c4cc(F)c5nc(C)n(C(C)C)c5c4)n3)nc2)CC1 + CNC(=O)c1ccc(Nc2nc(OC3CCCC3)c3c(-c4ccc5nc(C)oc5c4)c[nH]c3n2)c(OC)c1 when you have a moment?
Result: inactive

Q: Dear colleague, could you share the recorded outcome for Nc1ccn(C2OC(CO)C(O)C2(F)F)c(=O)n1 (stereo not given) + CNC(=O)c1ccc(Nc2nc(OC3CCCC3)c3c(-c4ccc5nc(C)oc5c4)c[nH]c3n2)c(OC)c1 when you have a moment?
Result: active

Q: Dear colleague, could you share the recorded outcome for CC1(C)CCC(CN2CCN(c3ccc(C(=O)NS(=O)(=O)c4ccc(NCC5CCOCC5)c([N+](=O)[O-])c4)c(Oc4cnc5[nH]ccc5c4)c3)CC2)=C(c2ccc(Cl)cc2)C1 + CN1CCN(c2cc(C(=O)Nc3cc4cc(-c5cnn(C)c5)ccc4cn3)ccn2)CC1 when you have a moment?
Result: inactive

* * *

tested on: 379773-124-R-J2-PDC complex spheroids, viability % test/control; experiment: Anticancer human tumor 379773-124-R-J2-PDC cell line growth inhibition [CLK]; details: second compound 10 µM; first compound 0.00949 µM; active = viability on the fitted dose curve at most 10% of control; inactive = the rest;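 further: compound exposure lasted seven days before the viability readout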
Use one of these outcomes when replying: active, inactive

Q: Dear colleague, could you share the recorded outcome for NC(=O)C(=Cn1cnc(-c2cc(C(F)(F)F)cc(C(F)(F)F)c2)n1)c1cncnc1 + CN1CCN(c2cc(C(=O)Nc3cc4cc(-c5cnn(C)c5)ccc4cn3)ccn2)CC1 when you have a moment?
Result: active

Q: Dear colleague, could you share the recorded outcome for C=CC(=O)Nc1cc(Nc2nccc(-c3cn(C)c4ccccc34)n2)c(OC)cc1N(C)CCN(C)C + CN1CCN(c2cc(C(=O)Nc3cc4cc(-c5cnn(C)c5)ccc4cn3)ccn2)CC1 when you have a moment?
Result: active

Q: Dear colleague, could you share the recorded outcome for C=CC(=O)Nc1cc(Nc2nccc(-c3cn(C)c4ccccc34)n2)c(OC)cc1N(C)CCN(C)C + CNC(=O)c1ccc(Nc2nc(OC3CCCC3)c3c(-c4ccc5nc(C)oc5c4)c[nH]c3n2)c(OC)c1 when you have a moment?
Result: inactive

Q: Dear colleague, could you share the recorded outcome for NC(=O)C(=Cn1cnc(-c2cc(C(F)(F)F)cc(C(F)(F)F)c2)n1)c1cncnc1 + CNC(=O)c1ccc(Nc2nc(OC3CCCC3)c3c(-c4ccc5nc(C)oc5c4)c[nH]c3n2)c(OC)c1 when you have a moment?
Result: inactive

Q: Dear colleague, could you share the recorded outcome for CC(C)CC(NC(=O)C(Cc1ccccc1)NC(=O)c1cnccn1)B(O)O (stereo unspecified) + CN1CCN(c2cc(C(=O)Nc3cc4cc(-c5cnn(C)c5)ccc4cn3)ccn2)CC1 when you have a moment?
Result: active

Q: Dear colleague, could you share the recorded outcome for CC(C)CC(NC(=O)C(Cc1ccccc1)NC(=O)c1cnccn1)B(O)O (stereo unspecified) + CNC(=O)c1ccc(Nc2nc(OC3CCCC3)c3c(-c4ccc5nc(C)oc5c4)c[nH]c3n2)c(OC)c1 when you have a moment?
Result: active

Data origin, for the record: PubChem BioAssay AID2060604
